The measured values listed here are drawn from patent US10098827B2.

TESTED ON: human leukocyte elastase (HLE) (Homo sapiens, UniProt P08246)
Construct: CEREP (contract assay)
Sequence (P08246 30-267): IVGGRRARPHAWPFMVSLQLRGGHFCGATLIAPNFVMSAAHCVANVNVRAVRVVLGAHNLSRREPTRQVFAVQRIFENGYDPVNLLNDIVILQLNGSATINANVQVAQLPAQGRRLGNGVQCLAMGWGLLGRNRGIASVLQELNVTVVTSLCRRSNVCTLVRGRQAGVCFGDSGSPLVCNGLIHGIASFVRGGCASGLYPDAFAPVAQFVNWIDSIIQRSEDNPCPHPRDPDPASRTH
EXPERIMENT: Human Elastase Assay test (CEREP catalog), photometry
Assay type: biochemical
MEASUREMENT PARAMETERS: compound at 1 mM; reference substrate MeOSAAPV-pNa at 0.1 mM; photometry; read-out: Elastase inhibition activity (conc 1 mM)
// inhibition at 1000 µM lookup, one value per entry
RESULT TYPE: inhibition at 1000 µM (%)

- CC(=O)N(c1ccc(C(=O)O)c(O)c1)[C@H](C(=O)NCC(=O)O)C(C)C [Compound 1]: 98
- CC(=O)N(c1cc(C(=O)O)cc(C(=O)O)c1)[C@H](C(=O)NCC(=O)O)C(C)C [Compound 3]: 98
- CCOC(=O)c1cc(N(C(C)=O)[C@H](C(=O)NCC(=O)O)C(C)C)ccc1O [Compound 5]: 62
- CC(=O)N(c1ccc(C(=O)O)cc1)C(C(=O)NCC(=O)O)C(C)C (centres unmarked) [Compound 8]: 88
- CC(=O)N(c1cccc(C#N)c1)C(C(=O)NCC(=O)O)C(C)C (centres unmarked) [Compound 4]: 35
- CC(=O)N(c1cccc(O)c1)[C@H](C(=O)NCC(=O)O)C(C)C [Compound 7, N-ACETYL-N-(3-HYDROXYPHENYL)VALYLGLYCINE]: 62
- COC(=O)c1cc(C(=O)OC)cc(N(C(C)=O)C(C(=O)NCC(=O)O)C(C)C)c1 (centres unmarked) [Compound 6]: 65
- CC(=O)N(c1ccc(C(=O)O)c(C(=O)O)c1)[C@H](C(=O)NCC(=O)O)C(C)C [Compound 2]: 98
